Assay: Solubilities in a variety of solubilizers
Assay type: physicochemical
Settings: N-methylpyrrolidone (NMP), organic solvent or mixture; solvent N-methylpyrrolidone; read-out: solubility in N-methylpyrrolidone (NMP)
measurement type: solubility

*Q* Reported solubility for `O=C(O)Cc1ccccc1Nc1c(Cl)cccc1Cl` : what is it?
*A* ≥ 100 mg/mL

###

Experiment: Solubilities in a variety of solubilizers
Format: physicochemical
Details: polyethylene glycol (PEG-400), organic solvent or mixture; solvent polyethylene glycol; read-out: solubility in polyethylene glycol (PEG-400)
measurement type: solubility

*Q* Reported solubility for `O=C(O)Cc1ccccc1Nc1c(Cl)cccc1Cl` : what is it?
*A* ≥ 100 mg/mL
